src = PubChem BioAssay AID1159580

assay: chemical genetic growth profiling, strain panel (AID 1159580);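 further: tested at 20 µM; growth read once vehicle control cultures reached saturation at 30 °C; 1 = growth at the plate median or of vehicle wells; lower values mean less growth of the strain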; conditions: S. cerevisiae deletion strains, growth OD, locus YLR027C, strain aat2, active compounds read low
Among all 5,500 compounds or so, about 2,000 (36%) were called active. Inconclusive results (about 18%) are left out. The list shows a part of the results.
compounds and their reported normalized growth
outcome_measure: normalized growth

INSERT INTO assay_data (compound, numeric_result) VALUES
  ('O=C1c2ccccc2C(=O)C1c1ccccc1', 0.998),
  ('C[C@]12CCC(=O)C=C1CCC1C2[C@@H](O)C[C@@]2(C)C1CC[C@]2(O)C(=O)COC(=O)CCC(=O)O (stereo partly specified)', 1.01),
  ('O=c1[nH]cnc2c1ncn2C1O[C@H](CO)[C@@H](O)[C@H]1O (stereo partly specified)', 0.994),
  ('C#CC1(O)CCC2C3CCC4=CC(=O)CCC4(C)C3CCC21C (stereo unspecified)', 0.986),
  ('COc1c2c(cc3c1OCO3)C13C=C[C@H](OC)CC1N(C2)CC3O (stereo partly specified)', 0.996),
  ('C[C@]12CCC(=O)C=C1CCC1C2C(=O)C[C@@]2(C)C1CC[C@]2(O)C(=O)CO (stereo partly specified)', 1.01);
